Target: Inward rectifier potassium channel 2 (Mus musculus)
Assay: Kir2.1 potassium channel inhibitors, dose response, cell-based, HEK293, thallium flux, FluxOR fluorescence (AID 624350)
Details: HEK293 Kir2.1, FluxOR thallium flux fluorescence, 20 min
Activity calls are given as the source filed them.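 The calls were made as follows: active = over 50% block of the Kir2.1 potassium channel by compound at 30 µM; inactive = the rest.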
Select the correct class. Options are active, inactive and nothing else.

Would you please look over these solved cases?
>>> category("O=S(=O)(NCc1ccc(F)cc1F)c1ccc(Br)cc1")
"active"
>>> category("Cc1ccc(C)c(OCCCNCc2ccco2)c1")
"inactive"

Assay result, entry `O=S(=O)(c1ccc(F)cc1)N1CCCc2ccccc21` — outcome?
active

Assay result, entry `c1ccc(Cc2nc3ccccc3n2-c2ccccc2)cc1` — outcome?
active

Assay result, entry `Cc1ccc(C)c(OCCCNCc2cccc3ccccc23)c1` — outcome?
active

Assay result, entry `Cc1ccc(C)c(OCCCNCCc2ccccc2)c1` — outcome?
active

Assay result, entry `c1ccc(Cc2nc3ccccc3n2Cc2ccccc2)cc1` — outcome?
active

Assay result, entry `O=S(=O)(c1ccccc1Br)N1CCCc2ccccc21` — outcome?
active
